target: IN-GCN2 interaction (6xHis-IN / GST-GCN2) (UniProt P04585+Q9P2K8); test: biochemical; type: binding, HIV-1 IN; human GCN2; conditions: IC50, inhibition of IN-GCN2 interaction, SAR study, fresh dilutions from powder; at least three independent experiments
Sequence (Q9P2K8 192-1024, other chains not shown): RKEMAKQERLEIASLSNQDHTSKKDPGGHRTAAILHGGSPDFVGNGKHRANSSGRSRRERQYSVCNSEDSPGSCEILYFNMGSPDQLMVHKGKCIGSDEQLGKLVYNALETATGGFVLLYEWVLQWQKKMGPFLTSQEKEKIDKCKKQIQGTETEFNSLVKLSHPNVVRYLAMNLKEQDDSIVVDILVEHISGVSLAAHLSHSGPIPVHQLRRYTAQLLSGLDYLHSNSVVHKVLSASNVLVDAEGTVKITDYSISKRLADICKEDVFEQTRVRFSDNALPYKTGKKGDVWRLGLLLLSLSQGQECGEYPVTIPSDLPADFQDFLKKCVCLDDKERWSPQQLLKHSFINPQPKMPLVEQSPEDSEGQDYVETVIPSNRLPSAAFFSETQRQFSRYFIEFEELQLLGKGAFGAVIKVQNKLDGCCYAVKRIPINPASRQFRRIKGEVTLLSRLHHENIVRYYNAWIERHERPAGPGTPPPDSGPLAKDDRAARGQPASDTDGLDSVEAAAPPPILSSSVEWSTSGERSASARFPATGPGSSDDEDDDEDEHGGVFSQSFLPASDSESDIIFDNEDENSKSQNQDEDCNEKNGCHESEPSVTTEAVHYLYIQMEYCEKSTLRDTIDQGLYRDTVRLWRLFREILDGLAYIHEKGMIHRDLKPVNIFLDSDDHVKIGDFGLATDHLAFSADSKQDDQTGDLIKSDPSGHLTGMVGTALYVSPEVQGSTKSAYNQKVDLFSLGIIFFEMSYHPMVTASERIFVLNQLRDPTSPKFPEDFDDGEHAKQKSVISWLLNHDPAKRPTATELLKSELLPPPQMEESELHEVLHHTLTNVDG
Assignment: determine reported pIC50 for the given compounds.
One number for each entry, as −log10 of the molar value.

{"columns": ["compound", "target-desc", "pIC50"],
 "data": [
  ["NC(CS)C(=O)NCCNc1ccc(NCCNC(=O)C(N)CS)c2c1C(=O)c1c(O)ccc(O)c1C2=O (stereo not drawn)", "IN-GCN2 interaction (6xHis-IN / GST-GCN2) (UniProt P04585+Q9P2K8)", 5.19],
  ["COc1cc2c(cc3c4c(cc5c(c42)OCO5)CCN3C)c(OC)c1OC", "IN-GCN2 interaction (6xHis-IN / GST-GCN2) (UniProt P04585+Q9P2K8)", 5.25],
  ["O=C1c2c(O)ccc(O)c2C(=O)c2c(NCCNCCO)ccc(NCCNCCO)c21 [NSC279836, mitoxantrone, reference compound]", "IN-GCN2 interaction (6xHis-IN / GST-GCN2) (UniProt P04585+Q9P2K8)", 5.62],
  ["COc1cccc2c1C(=O)c1c(O)c3c(c(O)c1C2=O)CC(O)(C(C)=O)CC3OC1CC([N+](C)(C)C)C(O)C(C)O1 (stereo not drawn)", "IN-GCN2 interaction (6xHis-IN / GST-GCN2) (UniProt P04585+Q9P2K8)", 4.12],
  ["O=C1c2c(O)ccc(O)c2C(=O)c2c(NCCO)ccc(NCCO)c21", "IN-GCN2 interaction (6xHis-IN / GST-GCN2) (UniProt P04585+Q9P2K8)", 5.36]
]}

Lab note: each compound below needs its pIC50 filled in.
1. COc1ccc2ccccc2c1/C=C/C(=O)c1ccc(OCc2ccccc2)cc1O
2. COc1cccc2c1C(=O)c1c(O)c3c(c(O)c1C2=O)CC(O)(C(C)=O)CC3OC1CC(N(C)C)C(O)C(C)O1 (stereo not drawn)

Response given:
1. 5.59
2. 4.36

----------
biological target: IN-GCN2 interaction (6xHis-IN / GST-GCN2) (UniProt P04585+Q9P2K8); assay: biochemical; assay type: binding, HIV-1 IN; human GCN2; details: screen, single dose 100 µM, single replicate; residual AlphaLISA signal normalized to DMSO control
experimental-readout: IN-GCN2 interaction (%)
Give bare numbers, in %.

Before answering, review these 5 worked examples.
{"columns": ["molecule", "IN-GCN2 interaction (%)"],
 "data": [
  ["CO/N=C1\\CC(C)N2C(=O)C(C(C)C)NC(=O)C(NC(=O)c3c4nc5c(C(=O)NC6C(=O)NC(C(C)C)C(=O)N7C(C)CC(O)C7C(=O)N(C)CC(=O)N(C)C(C(C)C)C(=O)OC6C)ccc(C)c5oc-4c(C)c(=O)c3N)C(CO)OC(=O)C(C)N(C)C(=O)CN(C)C(=O)C12 (stereo not drawn) [NSC237671]", 81.33],
  ["CCCCC1CCCCCCc2[nH]c(C=C3N=C(c4ccc[nH]4)C=C3OC)cc21 (stereo not drawn) [NSC247562]", 8.97],
  ["CC1=C(O)C(=O)C=C2C1=CC=C1[C@@]2(C)CC[C@@]2(C)[C@@H]3C[C@](C)(C(=O)O)CC[C@]3(C)CC[C@]12C [NSC70931]", 100.77],
  ["N#C[C@H](O[C@@H]1O[C@H](CO[C@@H]2O[C@H](CO)[C@@H](O)[C@H](O)[C@H]2O)[C@@H](O)[C@H](O)[C@H]1O)c1ccccc1 [NSC15780]", 121.81],
  ["CC[C@H]1OC(=O)[C@H](C)[C@@H](O[C@H]2C[C@@](C)(O)[C@@H](O)[C@H](C)O2)[C@H](C)[C@@H](O)[C@](C)(O)C[C@@H](C)C(=O)[C@H](C)[C@@H](O)[C@H]1C [NSC209870]", 103.21]
]}

Moving on to another molecule below.
Item: CCC(C)(O)c1cnc(CC(C)C)c(=O)n1O (stereo not drawn) [NSC127445] | System: IN-GCN2 interaction (6xHis-IN / GST-GCN2) (UniProt P04585+Q9P2K8) | IN-GCN2 interaction (%): 137.47
